The reported measurements were obtained from patent US6451814B1.

Structures can show the parent of a compound that is named as a salt.
Kindly supply the reported melting point values for the records listed here.

Give melting point for each listed item.
1. CCCCCCNC(=O)Nc1ccc(C(=O)N2CCC(Nc3ccc(CCNC[C@H](O)COc4ccc(O)cc4)cc3)CC2)cc1 [Example 93]
2. O=C(NCCCC1CCCC1)N1CCC(Nc2ccc(CCNC[C@H](O)COc3ccc(O)cc3)cc2)CC1 (as salt: salt) [Example 12]
3. CCOC(=O)C1CCN(C(=O)N2CCC(Nc3ccc(CCNC[C@H](O)COc4ccc(O)cc4)cc3)CC2)CC1 [Example 61]
4. Cc1ccsc1C(=O)N1CCC(Nc2ccc(CCNC[C@H](O)COc3ccc(O)cc3)cc2)CC1 (as salt: salt) [Example 100]
5. CCCCCCCCNC(=O)N1CCC(Nc2ccc(CCNC[C@H](O)COc3ccc(O)c(F)c3)cc2)CC1 [Example 65]

**A:**
1. 108 to 111 °C
2. 71 to 74 °C
3. 69 to 71 °C
4. 88 to 90 °C
5. 60 to 62 °C

Note to self: melting point recorded for CCCCCC(=O)N1CCC(Nc2ccc(CCNC[C@H](O)COc3ccc(O)cc3)cc2)CC1 [Example 103] was 57 to 59 °C
